Quick reference: DC50 of the listed items.
target: HPK1 (Homo sapiens, UniProt Q92918); construct: A HiBiT tag was introduced by CRISPR on the N terminus of HPK1 in Jurkat cells; host or cells: Jurkat cells (ATCC TIB-152), monoclonal line with CRISPR knock-in of HiBiT at the endogenous HPK1 locus; experiment: HPK1 Cellular HiBit Degradation Assay; type: cell-based; conditions: HiBiT HPK1 Jurkat cells, 24 hrs; concentration at which 50% of HPK1 was remaining; read-out: DC50 Category
Sequence (Q92918 whole entry): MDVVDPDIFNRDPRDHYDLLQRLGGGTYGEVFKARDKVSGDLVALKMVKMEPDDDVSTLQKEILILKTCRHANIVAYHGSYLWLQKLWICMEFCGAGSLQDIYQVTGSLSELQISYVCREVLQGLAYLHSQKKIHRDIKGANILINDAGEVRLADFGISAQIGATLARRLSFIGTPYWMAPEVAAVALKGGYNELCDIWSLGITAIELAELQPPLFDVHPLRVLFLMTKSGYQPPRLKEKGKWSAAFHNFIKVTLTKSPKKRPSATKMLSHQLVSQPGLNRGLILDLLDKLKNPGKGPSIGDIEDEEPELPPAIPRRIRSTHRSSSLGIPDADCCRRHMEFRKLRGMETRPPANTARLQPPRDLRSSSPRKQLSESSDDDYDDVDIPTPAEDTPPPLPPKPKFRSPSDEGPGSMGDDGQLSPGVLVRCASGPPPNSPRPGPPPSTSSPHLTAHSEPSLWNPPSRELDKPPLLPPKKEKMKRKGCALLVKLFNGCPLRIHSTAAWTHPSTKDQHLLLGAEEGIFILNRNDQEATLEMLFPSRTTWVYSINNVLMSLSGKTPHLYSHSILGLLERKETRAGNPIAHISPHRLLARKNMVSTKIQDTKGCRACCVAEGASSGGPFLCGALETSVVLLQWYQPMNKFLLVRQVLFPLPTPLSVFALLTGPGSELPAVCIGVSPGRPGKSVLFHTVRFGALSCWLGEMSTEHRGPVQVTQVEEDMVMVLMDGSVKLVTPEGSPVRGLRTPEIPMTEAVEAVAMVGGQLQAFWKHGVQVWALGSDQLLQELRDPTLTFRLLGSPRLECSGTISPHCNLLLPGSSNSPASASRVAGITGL

Illustrative cases are given below, each with its answer.
CC(C)n1cnc2cc(-c3ccc4c(c3)N([C@H]3C[C@@H](N5CCCCC5)C3)C(=O)C43CCN(C(=O)C4(C)CCN(C(=O)[C@H]5CC[C@H](Oc6ccc(C7CCC(=O)NC7=O)cn6)CC5)CC4)CC3)nc(Nc3ccccc3F)c21 (mixture of isomers) [Example 105]
< 0.1 µM
CC(C)n1cnc2cc(-c3ccc4c(c3)N([C@H]3C[C@@H](N5CCCCC5)C3)C(=O)C43CCN(C(=O)[C@@H]4CCN(C(=O)[C@H]5CC[C@H](Nc6cccc7c6C(=O)N(C6CCC(=O)NC6=O)C7=O)CC5)C4)CC3)nc(Nc3ccccc3F)c21 (mixture of isomers) [Example 9]
0.1 to 0.5 µM
CC(C)n1cnc2cc(-c3ccc4c(c3)N([C@H]3C[C@@H](N5CCCCC5)C3)C(=O)C43CCN(C(=O)C4(C)CCN(C(=O)[C@H]5CC[C@H](Cn6cc7cc(C8CCC(=O)NC8=O)ccc7n6)CC5)CC4)CC3)nc(Nc3ccccc3F)c21 (mixture of isomers) [Example 190]
< 0.1 µM

Report DC50 for Cc1cc(N2CCC(C(=O)N3CCC(C)(C(=O)N4CCC5(CC4)C(=O)N([C@H]4C[C@@H](N6CCCCC6)C4)c4cc(-c6cc7ncn(C(C)C)c7c(NC7CC7)n6)ccc45)CC3)CC2)ccc1C1CCC(=O)NC1=O (mixture of isomers) [Example 227] please.
0.1 to 0.5 µM
